- Test system: Acinetobacter baumannii ABA19-1
- Format: cell-based
- assay conditions: ABA19-1
Bridge positions count the residues as written; N and C are the ends. Square brackets hold non-standard residues; d marks the D form. Peptide text beside a SMILES is read from it. * marks the point of attachment. Heptanoyl(6-Me) = CC(C)CCCCC(=O)*; Sulfomethyl = O=S(=O)(O)C*; dOrn = NCCC[C@@H](N)C(=O)O; Nonanoyl = CCCCCCCCC(=O)*; X1 = CC[C@H](C)CCCCC(=O)*; dDab = NCC[C@@H](N)C(=O)O; Heptanoyl = CCCCCCC(=O)*; Octanoyl = CCCCCCCC(=O)*; Orn = NCCC[C@H](N)C(=O)O; Dab = NCC[C@H](N)C(=O)O; Dap = NC[C@H](N)C(=O)O
Please respond with reported MIC for every item in the list.
Numbers only, in µg/mL.

Check out these entries, answers already filled in.
CC[C@H](C)CCCCC(=O)N[C@@H](CCN)C(=O)N[C@H](C(=O)N[C@H](CO)C(=O)N[C@H]1CCNC(=O)[C@H]([C@@H](C)O)NC(=O)[C@H](CN)NC(=O)[C@H](CCN)NC(=O)[C@H]([C@@H](C)O)NC(=O)[C@@H](Cc2ccccc2)NC(=O)[C@H](CCN)NC1=O)[C@@H](C)O [Compound 81] (X1-[Dab]T[dS][Dab][Dab][dF]T[Dab][Dap]T; lactam 4-C)
0.06
CC[C@H](C)CCCCC(=O)N[C@@H](CCN)C(=O)N[C@H](C(=O)N[C@H](CCCN)C(=O)N[C@H]1CCNC(=O)[C@H]([C@@H](C)O)NC(=O)[C@H](CCN)NC(=O)[C@H](CCN)NC(=O)[C@H]([C@@H](C)O)NC(=O)[C@@H](Cc2ccccc2)NC(=O)[C@H](CCN)NC1=O)[C@@H](C)O [Compound 21] (X1-[Dab]T[dOrn][Dab][Dab][dF]T[Dab][Dab]T; lactam 4-C)
0.125
CCCCCCC(=O)N[C@@H](CCN)C(=O)N[C@H](C(=O)N[C@H](CO)C(=O)N[C@H]1CCNC(=O)[C@H]([C@@H](C)O)NC(=O)[C@H](CCN)NC(=O)[C@H](CCN)NC(=O)[C@H]([C@@H](C)O)NC(=O)[C@@H](Cc2ccccc2)NC(=O)[C@H](CCCN)NC1=O)[C@@H](C)O [Compound 69] (Heptanoyl-[Dab]T[dS][Dab][Orn][dF]T[Dab][Dab]T; lactam 4-C)
0.25
CCCCCCCC(=O)N[C@@H](CN)C(=O)N[C@H](C(=O)N[C@H](CO)C(=O)N[C@H]1CCNC(=O)[C@H]([C@@H](C)O)NC(=O)[C@H](CCN)NC(=O)[C@H](CCN)NC(=O)[C@H]([C@@H](C)O)NC(=O)[C@@H](Cc2ccccc2)NC(=O)[C@H](CCN)NC1=O)[C@@H](C)O [Compound 53] (Octanoyl-[Dap]T[dS][Dab][Dab][dF]T[Dab][Dab]T; lactam 4-C)
0.25

Please supply MIC for each of the following items, keeping them in order.
1. CCCCCCC(=O)N[C@@H](CCN)C(=O)N[C@H](C(=O)N[C@@H](CN)C(=O)N[C@H]1CCNC(=O)[C@H]([C@@H](C)O)NC(=O)[C@H](CCN)NC(=O)[C@H](CCN)NC(=O)[C@H]([C@@H](C)O)NC(=O)[C@@H](Cc2ccccc2)NC(=O)[C@H](CCN)NC1=O)[C@@H](C)O [Compound 9] (Heptanoyl-[Dab]T[Dap][Dab][Dab][dF]T[Dab][Dab]T; lactam 4-C)
2. CCCCCCCCC(=O)N[C@@H](CCN)C(=O)N[C@H](C(=O)N[C@H](CO)C(=O)N[C@H]1CCNC(=O)[C@H]([C@@H](C)O)NC(=O)[C@H](CCN)NC(=O)[C@H](CCCN)NC(=O)[C@H]([C@@H](C)O)NC(=O)[C@@H](Cc2ccccc2)NC(=O)[C@H](CCN)NC1=O)[C@@H](C)O [Compound 80] (Nonanoyl-[Dab]T[dS][Dab][Dab][dF]T[Orn][Dab]T; lactam 4-C)

0.03
0.06

Please supply MIC for each of the following items, keeping them in order.
1. CC(C)CCCCC(=O)N[C@@H](CCN)C(=O)N[C@H](C(=O)N[C@H](CO)C(=O)N[C@H]1CCNC(=O)[C@H]([C@@H](C)O)NC(=O)[C@H](CCN)NC(=O)[C@H](CCN)NC(=O)[C@H]([C@@H](C)OCS(=O)(=O)O)NC(=O)[C@@H](Cc2ccccc2)NC(=O)[C@H](CCN)NC1=O)[C@@H](C)O [Compound 105] ({Heptanoyl(6-Me)}-[Dab]T[dS][Dab][Dab][dF]T(Sulfomethyl)[Dab][Dab]T; lactam 4-C)
2. CCCCCCCCC(=O)N[C@@H](CCN)C(=O)N[C@H](C(=O)N[C@@H](CN)C(=O)N[C@H]1CCNC(=O)[C@H]([C@@H](C)O)NC(=O)[C@H](CCN)NC(=O)[C@H](CCN)NC(=O)[C@H]([C@@H](C)O)NC(=O)[C@@H](Cc2ccccc2)NC(=O)[C@H](CCN)NC1=O)[C@@H](C)O [Compound 10] (Nonanoyl-[Dab]T[Dap][Dab][Dab][dF]T[Dab][Dab]T; lactam 4-C)
3. CC(C)CCCCC(=O)N[C@@H](CN)C(=O)N[C@H](C(=O)N[C@H](CCN)C(=O)N[C@H]1CCNC(=O)[C@H]([C@@H](C)O)NC(=O)[C@H](CCN)NC(=O)[C@H](CCN)NC(=O)[C@H](CC(C)C)NC(=O)[C@@H](Cc2ccccc2)NC(=O)[C@H](CCN)NC1=O)[C@@H](C)O [Compound 92] ({Heptanoyl(6-Me)}-[Dap]T[dDab][Dab][Dab][dF]L[Dab][Dab]T; lactam 4-C)

1: 0.06; 2: 0.06; 3: 0.03

----------
- protocol notes: Nephrotoxicity assay: in vitro cytotoxicity of HK-2 cells by CCK-8 assay
- Format: cell-based
- assay conditions: human, HK-2 cells (human renal), 72 h incubation with drug-containing medium
Bridge positions count the residues as written; N and C are the ends. Square brackets hold non-standard residues; d marks the D form. Peptide text beside a SMILES is read from it. * marks the point of attachment. Heptanoyl(6-Me) = CC(C)CCCCC(=O)*; Sulfomethyl = O=S(=O)(O)C*; Nonanoyl = CCCCCCCCC(=O)*; X1 = CC[C@H](C)CCCCC(=O)*; dDab = NCC[C@@H](N)C(=O)O; Heptanoyl = CCCCCCC(=O)*; Octanoyl = CCCCCCCC(=O)*; Orn = NCCC[C@H](N)C(=O)O; dDap = NC[C@@H](N)C(=O)O; Dab = NCC[C@H](N)C(=O)O; Dap = NC[C@H](N)C(=O)O
Please respond with reported IC50 at 72 h for every item in the list.

Check out these entries, answers already filled in.
CCCCCCCCC(=O)N[C@@H](CCN)C(=O)N[C@H](C(=O)N[C@H](CN)C(=O)N[C@H]1CCNC(=O)[C@H]([C@@H](C)O)NC(=O)[C@H](CCN)NC(=O)[C@H](CCN)NC(=O)[C@H](CC(C)C)NC(=O)[C@@H](Cc2ccccc2)NC(=O)[C@H](CCN)NC1=O)[C@@H](C)O [Compound 35] (Nonanoyl-[Dab]T[dDap][Dab][Dab][dF]L[Dab][Dab]T; lactam 4-C)
138 µg/mL
CCCCCCCCC(=O)N[C@@H](CCN)C(=O)N[C@H](C(=O)N[C@@H](CN)C(=O)N[C@H]1CCNC(=O)[C@H]([C@@H](C)O)NC(=O)[C@H](CCN)NC(=O)[C@H](CCN)NC(=O)[C@H](CC(C)C)NC(=O)[C@@H](Cc2ccccc2)NC(=O)[C@H](CCN)NC1=O)[C@@H](C)O [Compound 40] (Nonanoyl-[Dab]T[Dap][Dab][Dab][dF]L[Dab][Dab]T; lactam 4-C)
158 µg/mL
CCCCCCCCC(=O)N[C@@H](CN)C(=O)N[C@H](C(=O)N[C@H](CO)C(=O)N[C@H]1CCNC(=O)[C@H]([C@@H](C)O)NC(=O)[C@H](CCN)NC(=O)[C@H](CCN)NC(=O)[C@H]([C@@H](C)O)NC(=O)[C@@H](Cc2ccccc2)NC(=O)[C@H](CCN)NC1=O)[C@@H](C)O [Compound 55] (Nonanoyl-[Dap]T[dS][Dab][Dab][dF]T[Dab][Dab]T; lactam 4-C)
300 µg/mL
CC(C)CCCCC(=O)N[C@@H](CCN)C(=O)N[C@H](C(=O)N[C@H](CO)C(=O)N[C@H]1CCNC(=O)[C@H]([C@@H](C)O)NC(=O)[C@H](CCN)NC(=O)[C@H](CCN)NC(=O)[C@H]([C@@H](C)OCS(=O)(=O)O)NC(=O)[C@@H](Cc2ccccc2)NC(=O)[C@H](CCN)NC1=O)[C@@H](C)O [Compound 105] ({Heptanoyl(6-Me)}-[Dab]T[dS][Dab][Dab][dF]T(Sulfomethyl)[Dab][Dab]T; lactam 4-C)
> 500 µg/mL
CC(C)CCCCC(=O)N[C@@H](CN)C(=O)N[C@H](C(=O)N[C@H](CCN)C(=O)N[C@H]1CCNC(=O)[C@H]([C@@H](C)O)NC(=O)[C@H](CCN)NC(=O)[C@H](CCN)NC(=O)[C@H](CC(C)C)NC(=O)[C@@H](Cc2ccccc2)NC(=O)[C@H](CCN)NC1=O)[C@@H](C)O [Compound 92] ({Heptanoyl(6-Me)}-[Dap]T[dDab][Dab][Dab][dF]L[Dab][Dab]T; lactam 4-C)
228 µg/mL

Please supply IC50 at 72 h for each of the following items, keeping them in order.
1. CC(C)CCCCC(=O)N[C@@H](CCN)C(=O)N[C@H](C(=O)N[C@H](CO)C(=O)N[C@H]1CCNC(=O)[C@H]([C@@H](C)O)NC(=O)[C@H](CCN)NC(=O)[C@H](CCN)NC(=O)[C@H]([C@@H](C)O)NC(=O)[C@@H](Cc2ccccc2)NC(=O)[C@H](CN)NC1=O)[C@@H](C)O [Compound 62] ({Heptanoyl(6-Me)}-[Dab]T[dS][Dab][Dap][dF]T[Dab][Dab]T; lactam 4-C)
2. CC[C@H](C)CCCCC(=O)N[C@@H](CCN)C(=O)N[C@H](C(=O)N[C@H](CO)C(=O)N[C@H]1CCNC(=O)[C@H]([C@@H](C)O)NC(=O)[C@H](CN)NC(=O)[C@H](CCN)NC(=O)[C@H]([C@@H](C)O)NC(=O)[C@@H](Cc2ccccc2)NC(=O)[C@H](CCN)NC1=O)[C@@H](C)O [Compound 81] (X1-[Dab]T[dS][Dab][Dab][dF]T[Dab][Dap]T; lactam 4-C)
3. CCCCCCC(=O)N[C@@H](CCN)C(=O)N[C@H](C(=O)N[C@H](CO)C(=O)N[C@H]1CCNC(=O)[C@H]([C@@H](C)O)NC(=O)[C@H](CCN)NC(=O)[C@H](CCN)NC(=O)[C@H]([C@@H](C)O)NC(=O)[C@@H](Cc2ccccc2)NC(=O)[C@H](CCCN)NC1=O)[C@@H](C)O [Compound 69] (Heptanoyl-[Dab]T[dS][Dab][Orn][dF]T[Dab][Dab]T; lactam 4-C)
4. CCCCCCCC(=O)N[C@@H](CCCN)C(=O)N[C@H](C(=O)N[C@H](CO)C(=O)N[C@H]1CCNC(=O)[C@H]([C@@H](C)O)NC(=O)[C@H](CCN)NC(=O)[C@H](CCN)NC(=O)[C@H]([C@@H](C)O)NC(=O)[C@@H](Cc2ccccc2)NC(=O)[C@H](CCN)NC1=O)[C@@H](C)O [Compound 58] (Octanoyl-[Orn]T[dS][Dab][Dab][dF]T[Dab][Dab]T; lactam 4-C)
5. CCCCCCCCC(=O)N[C@@H](CCN)C(=O)N[C@H](C(=O)N[C@H](CN)C(=O)N[C@H]1CCNC(=O)[C@H]([C@@H](C)O)NC(=O)[C@H](CCN)NC(=O)[C@H](CCN)NC(=O)[C@H]([C@@H](C)O)NC(=O)[C@@H](Cc2ccccc2)NC(=O)[C@H](CCN)NC1=O)[C@@H](C)O [Compound 5] (Nonanoyl-[Dab]T[dDap][Dab][Dab][dF]T[Dab][Dab]T; lactam 4-C)

> 500 µg/mL
> 500 µg/mL
> 500 µg/mL
> 500 µg/mL
380 µg/mL
